Listed here are binders together with their documented Log DR.
# Experimental system: T1, human corticotrophin releasing hormone receptor type 2 (CRHR2) (human, UniProt Q13324 1-411)
# T1 sequence (looked up): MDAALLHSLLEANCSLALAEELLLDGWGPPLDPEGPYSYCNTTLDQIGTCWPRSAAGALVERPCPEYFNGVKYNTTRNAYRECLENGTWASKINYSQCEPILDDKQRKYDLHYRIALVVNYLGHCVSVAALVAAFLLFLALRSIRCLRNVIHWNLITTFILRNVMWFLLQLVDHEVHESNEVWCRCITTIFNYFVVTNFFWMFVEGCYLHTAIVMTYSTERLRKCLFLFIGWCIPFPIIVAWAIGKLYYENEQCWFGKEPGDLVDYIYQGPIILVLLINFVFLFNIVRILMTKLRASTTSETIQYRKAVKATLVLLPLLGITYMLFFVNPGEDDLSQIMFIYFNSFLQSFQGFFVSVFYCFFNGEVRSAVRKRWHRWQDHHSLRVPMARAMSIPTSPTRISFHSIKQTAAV
# Procedure text: cell-based or functional assay
Where no end group is shown, it is not given here.
Response body: numeric value in log10, unit text excluded.

Answer with the recorded Log DR of TKFTLSLDVPTNIMNLLFNIAKAKNLRAQAAANAHLMACI-NH2 [Cys-variant stresscopin-like peptide SEQ ID NO: 40] only. 0.55
